B1: library; numbered along this chain (parent)
chain: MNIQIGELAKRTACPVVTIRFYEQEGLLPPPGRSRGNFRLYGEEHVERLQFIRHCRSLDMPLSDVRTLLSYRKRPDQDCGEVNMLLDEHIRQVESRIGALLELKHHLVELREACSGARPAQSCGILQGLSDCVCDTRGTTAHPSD

variants of: B1; experiment: sfGFP reporter fluorescence (15 h) (µM FITC); higher = stronger transcriptional activation; details: library round: Round 0; ligand: 30 µM Zn
quantity.kind: sfGFP reporter fluorescence

sequence_content="MNIQIGELAKRTACPVVTIRFYEQEGLLPPPGRSRGNFRLYGEEHVERLQFIRHCRSLDMPLSDVRTLLSYRKRPDQDCGEVNMLLDEHIRQVESRIGALLELKHHLVELREACSGARPAQSMGILQGLSDCVCDTRGTTAHPSD [C123M]" quantity_kind="sfGFP reporter fluorescence" quantitative_result=0.0544
sequence_content="MNIQIGELAKRTACPVVTIRFYEQEGLLPPPGRSRENFRLYGEEHVERLQFIRHCRSLDMPLSDVRTLLSYRKRPDQDCGEVNMLLDEHIRQVESRIGALLELKHHLVELREACSGARPAQSCGILQGLSDCVCDTRGTTAHPSD [G36E]" quantity_kind="sfGFP reporter fluorescence" quantitative_result=0.115
sequence_content="MNIQIGCLAKRTACPVVTIRFYEQEGLLPPPGRSRGNFRLYGEEHVERLQFIRHCRSLDMPLSDVRTLLSYRKRPDQDCGEVNMLLDEHIRQVESRIGALLELKHHLVELREACSGARPAQSCGILQGLSDCVCDTRGTTAHPSD [E7C]" quantity_kind="sfGFP reporter fluorescence" quantitative_result=0.421
sequence_content="MNIQIAELAKRTACPVVTIRFYEQEGLLPPPGRSRGNFRLYGEEHVERLQFIRHCRSLDMPLSDVRTLLSYRKRPDQDCGEVNMLLDEHIRQVESRIGALLELKHHLVELREACSGARPAQSCGILQGLSDCVCDTRGTTAHPSD [G6A]" quantity_kind="sfGFP reporter fluorescence" quantitative_result=0.0902
sequence_content="MNIQIGELAKRTACPVVTIRFYEQEGLLPPPGRSRGNFRLYGEEHVERLQFIRHCRSGDMPLSDVRTLLSYRKRPDQDCGEVNMLLDEHIRQVESRIGALLELKHHLVELREACSGARPAQSCGILQGLSDCVCDTRGTTAHPSD [L58G]" quantity_kind="sfGFP reporter fluorescence" quantitative_result=0.052
sequence_content="MNIQIGELAKRTACPVVTIRFYEQEGLLPPPGRSRGNFRLYGEEHVERLQFIRHCRSLDMPLSDVRTLLSYRKRPDQDCGEVNMYLDEHIRQVESRIGALLELKHHLVELREACSGARPAQSCGILQGLSDCVCDTRGTTAHPSD [L85Y]" quantity_kind="sfGFP reporter fluorescence" quantitative_result=0.253
sequence_content="MNIQIGELAKRTACPVVTIRFYEQEGLLPPPGRSRGNFRLYGEEHVERLQFIRHCRSLDEPLSDVRTLLSYRKRPDQDCGEVNMLLDEHIRQVESRIGALLELKHHLVELREACSGARPAQSCGILQGLSDCVCDTRGTTAHPSD [M60E]" quantity_kind="sfGFP reporter fluorescence" quantitative_result=1.67
sequence_content="MNIQIGELAKRTACPVVTIRFYEQEGLLPPPGRSRGNFRLYGEEHVERLQFIRHCRSLDMPLSDVRTLLSYRKRPDQDCGEVNMLLDESIRQVESRIGALLELKHHLVELREACSGARPAQSCGILQGLSDCVCDTRGTTAHPSD [H89S]" quantity_kind="sfGFP reporter fluorescence" quantitative_result=0.0627
sequence_content="MNIQIGELAKRTACPVVTIRFYEQEGLLPKPGRSRGNFRLYGEEHVERLQFIRHCRSLDMPLSDVRTLLSYRKRPDQDCGEVNMLLDEHIRQVESRIGALLELKHHLVELREACSGARPAQSCGILQGLSDCVCDTRGTTAHPSD [P30K]" quantity_kind="sfGFP reporter fluorescence" quantitative_result=1.03
sequence_content="MNIQIGELAKRTACPVVTIRFYEQEGLLPPPGRSRGNFRLYGEEHVERLQFIRHCRSLDMPLSDVRTLLSYRKRPDQDCGEVNMLLDEHIRQVESRIGALLELKHHLVELREAWSGARPAQSCGILQGLSDCVCDTRGTTAHPSD [C114W]" quantity_kind="sfGFP reporter fluorescence" quantitative_result=0.0524
sequence_content="MNIQIGELAKRTACPVVTIRFYEQEGLLPPPGRSRGNFRLYGEEHVERLQFIRHCRSLDMPLSDVRTPLSYRKRPDQDCGEVNMLLDEHIRQVESRIGALLELKHHLVELREACSGARPAQSCGILQGLSDCVCDTRGTTAHPSD [L68P]" quantity_kind="sfGFP reporter fluorescence" quantitative_result=0.0652
sequence_content="MNIQIGELAKRTACPVVTIRFYEQEGLLPPPGRSRGNFRLYGEEHVERLQFIRHCRSLDMNLSDVRTLLSYRKRPDQDCGEVNMLLDEHIRQVESRIGALLELVHHCVELREACSGARPAQSCGILQILSDCVCDTRGTTAHPSD [P61N K104V L107C G128I]" quantity_kind="sfGFP reporter fluorescence" quantitative_result=2.66
sequence_content="MNIQIGELAKRTACVVVTIRFYEQEGLLPPPGRSRGNFRLYGEEHVERLQFIRHCRSLDMPLSDVRTLLSYRKRPDQDCGEVNMLLDEHIRQVESRIGALLELKHHLVELREACSGARPAQSCGILQGLSDCVCDTRGTTAHPSD [P15V]" quantity_kind="sfGFP reporter fluorescence" quantitative_result=0.212
sequence_content="MNIQIGELAKRTACPVVTIRFYEQEGLLPPPGRSRFNFRLYGEEHVERLQFIRHCRSLDMPLSDVRTLLSYRKRPDQDCGEVNMLLDEHIRQVESRIGALLELKHHLVELREACSGARPAQSCGILQGLSDCVCDTRGTTAHPSD [G36F]" quantity_kind="sfGFP reporter fluorescence" quantitative_result=0.145
sequence_content="MNIQIGELAKRTACPVVTIRFYEQEGLLPPPGRSRGNFRLYGEEHVERLQFIRHCRSLDMPLSDVRTLLSYRKRPDQDCGEVNMLLDEHIRQVWSRIGALLELKHHLVELREACSGARPAQSCGILQGLSDCVCDTRGTTAHPSD [E94W]" quantity_kind="sfGFP reporter fluorescence" quantitative_result=0.143
sequence_content="MNIQIGELAKRTACPVVTIRFYEQEGLLPPPGRSRGNFRLYGEEHVERLQFIRHCRSLDMPLSDVRTLLSYRKRPDQDCGEVNMLLDEHIRQVESRHGALLELKHHLVELREACSGARPAQSCGILQGLSDCVCDTRGTTAHPSD [I97H]" quantity_kind="sfGFP reporter fluorescence" quantitative_result=0.263
sequence_content="MNIQIGELAKRTACPVVTIRFAEQEGLLPPPGRSRGNFRLYGEEHVERLQFIRHCRSLDMPLSDVRTLLSYRKRPDQDCGEVNMLLDEHIRQVESRIGALLELKHHLVELREACSGARPAQSCGILQGLSDCVCDTRGTTAHPSD [Y22A]" quantity_kind="sfGFP reporter fluorescence" quantitative_result=0.0634
sequence_content="MNIQIGELAKRTACPVVTIRFYEQEGLLPPPGRSRGNFRLYGEEHVERLQFIRHCRSLDMPLSDVRTLLSYRKRPDQDCGEVNMLLDEHIRQVESRIGALLELKHHLVELREACSGARPAQSCGILQGLSDCVCMTRGTTAHPSD [D135M]" quantity_kind="sfGFP reporter fluorescence" quantitative_result=2.2
sequence_content="MNIQIGELAKRTACPVVTIRFYEQEGLLPPPGRSRGNFRLYGEEHVERLQFIRHCRSLDMPLSSVRTLLSYRKRPDQDCGEVNMLLDEHIRQVESRIGALLELKHHLVELREACSGARPAQSCGILQGLSDCVCDTRGTTAHPSD [D64S]" quantity_kind="sfGFP reporter fluorescence" quantitative_result=3.02
sequence_content="MNIQIGELAKRTACPVVTIRFYEQEGLLPPPGRSRGNARLYGEEHVERLQFIRHCRSLDMPLSDVRTLLSYRKRPDQDCGEVNMLLDEHIRQVESRIGALLELKHHLVELREACSGARPAQSCGILQGLSDCVCDTRGTTAHPSD [F38A]" quantity_kind="sfGFP reporter fluorescence" quantitative_result=0.379
sequence_content="MNIQIGELAKRTACPVVTIRFYEQEGLLPPPGRSRGNFRLYGEEHVERLQFIRHCRSLDMPLSDVRTLLSYRKRPDQDCGEVNMLLDEHIRQVESRIGALLELKHHLVELREACSGARPAQSCGILQGLSDCVCDTRGTTAHTSD [P143T]" quantity_kind="sfGFP reporter fluorescence" quantitative_result=0.821
sequence_content="MNIQIGELAKRTACPVVTIRFYEQEGLLPPPGRSRGNFRLYGEEHVERLQFIRHCRSWDMPLSDVRTLLSYRKRPDQDCGEVNMLLDEHIRQVESRIGALLELKHHLVELREACSGARPAQSCGILQGLSDCVCDTRGTTAHPSD [L58W]" quantity_kind="sfGFP reporter fluorescence" quantitative_result=0.076
sequence_content="MNIQIGELAKRTACPVVTIRFYEQEGLLPPPGRSRGNFRLRGEEHVERLQFIRHCRSLDMPLSDVRTLLSYRKRPDQDCGEVNMLLDEHIRQVESRIGALLELKHHLVELREACSGARPAQSCGILQGLSDCVCDTRGTTAHPSD [Y41R]" quantity_kind="sfGFP reporter fluorescence" quantitative_result=0.0643
sequence_content="MNIQIGELAKRTACGVVTIRFYEQEGLLPPPGRSRGNFRLYGEEHVERLQFIRHCRSLDMPLSDVRTLLSYRKRPDQDCGEVNMLLDEHIRQVESRIGALLELKHHLVELREACSGARPAQSCGILQGLSDCVCDTRGTTAHPSD [P15G]" quantity_kind="sfGFP reporter fluorescence" quantitative_result=0.447
sequence_content="MNIQIGELAKRTACPVVTIIFYEQEGLLPPPGRSRGNFRLYGEEHVERLQFIRHCRSLDMPLSDVRTLLSYRKRPDQDCGEVNMLLDEHIRQVESRIGALLELKHHLVELREACSGARPAQSCGILQGLSDCVCDTRGTTAHPSD [R20I]" quantity_kind="sfGFP reporter fluorescence" quantitative_result=0.142
sequence_content="MNIQIGELAKRTACPVVTIRFYEQEGLLPPPGRSRGNFRLYGEEHVERLQFIRHCRSLDMPLSDVRTLLSYRKRPDQDCGEVNMLLDEHIRQVESRIGALLELKHHLVELREACSGARPAQSCGILQGLSDCVWDTRGTTAHPSD [C134W]" quantity_kind="sfGFP reporter fluorescence" quantitative_result=1.92
sequence_content="MNIQIGELAKATACPVVTIRFYEQEGLLPPPGRSRGNFRLYGEEHVERLQFIRHCRSLDMPLSDVRTLLSYRKRPDQDCGEVNMLLDEHIRQVESRIGALLELKHHLVELREACSGARPAQSCGILQGLSDCVCDTRGTTAHPSD [R11A]" quantity_kind="sfGFP reporter fluorescence" quantitative_result=0.565
sequence_content="MNIQIGELAKRTACPVVTIRFYEQEGLLPPPGRSRGNFRLYGEEHVERLQFIRHCRSLDMPLSDVRTLLSYRKRPDQDCGEVNMLLDEHIRQVESRIGALLELKHHIVELREACSGARPAQSCGILQGLSDCVCDTRGTTAHPSD [L107I]" quantity_kind="sfGFP reporter fluorescence" quantitative_result=0.808
